targetOrSystem: α-glucosidase from Saccharomyes cerevisiae (Saccharomyces cerevisiae, UniProt P53341)
Construct: purchased Sigma-Aldrich (St. Louis, MO, USA)
Sequence (P53341 whole entry): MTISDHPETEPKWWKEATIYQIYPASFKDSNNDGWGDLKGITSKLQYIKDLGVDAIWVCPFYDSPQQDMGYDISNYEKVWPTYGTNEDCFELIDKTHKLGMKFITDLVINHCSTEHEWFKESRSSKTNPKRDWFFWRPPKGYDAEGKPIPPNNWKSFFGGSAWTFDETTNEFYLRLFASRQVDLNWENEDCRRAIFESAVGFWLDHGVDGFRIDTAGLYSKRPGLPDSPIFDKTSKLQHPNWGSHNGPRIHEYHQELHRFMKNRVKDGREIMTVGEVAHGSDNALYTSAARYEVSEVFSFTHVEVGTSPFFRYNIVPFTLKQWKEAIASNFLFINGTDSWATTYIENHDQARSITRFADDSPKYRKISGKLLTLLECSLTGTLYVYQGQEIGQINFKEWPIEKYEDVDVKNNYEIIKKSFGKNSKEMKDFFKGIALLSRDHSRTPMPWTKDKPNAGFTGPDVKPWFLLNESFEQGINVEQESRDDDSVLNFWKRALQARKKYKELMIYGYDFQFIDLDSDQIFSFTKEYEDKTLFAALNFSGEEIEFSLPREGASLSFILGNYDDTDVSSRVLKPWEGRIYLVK
assayMethodText: α-glucosidase inhibitory assay (PNPG substrate)
Assay type: biochemical
conditionDetails: compound at 667 μM
parameterMeasured: inhibition at 667 µM
Give me the value, and tack the unit on after it.

molecule	targetOrSystem	inhibition at 667 µM
COc1cc(O)c2c(=O)cc(CC(O)CCCCCCC(=O)O)oc2c1 (stereo not drawn)	α-glucosidase from Saccharomyes cerevisiae (Saccharomyces cerevisiae, UniProt P53341)	25.2%

Any idea what inhibition at 667 µM was measured for COc1cc(O)c2c(=O)cc(CC(O)CCCC/C=C/C(=O)O)oc2c1 (stereo not drawn) ? 41.7%

For C[C@H]1O[C@H](O[C@H]2[C@H](O)[C@@H](O)[C@@H](O[C@H]3[C@H](O)[C@@H](O)C(O)O[C@@H]3CO)O[C@@H]2CO)[C@H](O)[C@@H](O)[C@@H]1N[C@H]1C=C(CO)[C@@H](O)[C@H](O)[C@H]1O (stereo partly drawn) [Acarbose, acarbose, reference compound] , what is its reported inhibition at 667 µM? 27.7%

# inhibition at 667 µM lookup, item COc1cc(O)c2c(=O)cc(CCCCCCC(=O)O)oc2c1 40.2%

Entry O=C(O)CCCCCCc1cc(=O)c2c(O)cc(O)cc2o1 : reported inhibition at 667 µM = ? 74.7%

Which inhibition at 667 µM is listed for COc1cc(O)c2c(=O)cc(CCC[C@@H]3CCC(=O)O3)oc2c1 ? -3.43%
